System: ISC-enriched organoids
Assay: Primary screen, 384-well 2.5-D organoid differentiation (ENR+CD, 6 days): carbachol-induced lysozyme secretion (LYZ.S)
Type: cell-based, murine
Conditions: strictly standardized mean difference; primary screen; 4th of the 4 dose lines of the treatment (dose not given)
Source text: High-throughput screening.
Counter-ions that a name gives are not always drawn.
Reported SSMD.LYZ.S values for the following molecules.
RECORDED ENDPOINT: SSMD.LYZ.S

[[record]]
molecule = "Cc1cnc(NC(=O)Nc2cc(Br)c(C)cc2OC[C@@H]2CNCCO2)cn1"
numeric_value = "−1.890"

[[record]]
molecule = "Clc1ccc(N/N=C(\\c2ccccc2)c2ccccn2)nc1"
numeric_value = "−0.195"

[[record]]
molecule = "Cc1ccc(NCCCc2ccccc2)c(N)c1"
numeric_value = "−0.147"

[[record]]
molecule = "O=C(NCCN1CCOCC1)c1ccc(Cl)cc1 [Moclobemide (Ro 111163)]"
numeric_value = 0.135

[[record]]
molecule = "CC(C)CCNC(=O)[C@H](CC(C)C)NC(=O)[C@H]1O[C@@H]1C(=O)O [Loxistatin Acid (E-64C)]"
numeric_value = 0.141

[[record]]
molecule = "O=C(c1ccc(Nc2nccc(-c3cc4ccccc4s3)n2)cc1)N1CCC(N2CCCC2)CC1"
numeric_value = "−1.351"

[[record]]
molecule = "O=C(C[S+]([O-])Cc1ccco1)NC/C=C\\COc1cc(CN2CCCCC2)ccn1 (stereo not drawn)"
numeric_value = "−0.111"

[[record]]
molecule = "CC12CC3CC(C)(C1)CC(N)(C3)C2 [Memantine HCl]"
numeric_value = "−0.142"

[[record]]
molecule = "CCc1c2c(nc3ccc(OC(=O)N4CCC(N5CCCCC5)CC4)cc13)-c1cc3c(c(=O)n1C2)COC(=O)[C@]3(O)CC"
numeric_value = "−1.217"


----------
system: ISC-enriched organoids; assay: Primary screen, 384-well 2.5-D organoid differentiation (ENR+CD, 6 days, Target Selective Inhibitor Library, vs whole-plate median): ATP (CellTiter-Glo 3D, CTG); details: Dose 0.08 uM; standard z score of FC
Where a name gives a salt, the structure may show the parent alone.
YES means recorded Z.CTG is 0.3 or above; NO means it is below 0.3.

[[record]]
molecule = "CC(C)C[C@H](NC(=O)CNC(=O)c1cc(Cl)ccc1Cl)B(O)O [MLN2238]"
system_under_test = "ISC-enriched organoids"
cat = "NO"

[[record]]
molecule = "Cc1ccccc1C(=O)Nc1ccc(C(=O)N2CCCC(N(C)C)c3ccccc32)cc1 (centres unmarked) [Mozavaptan]"
system_under_test = "ISC-enriched organoids"
cat = "YES"

[[record]]
molecule = "COCCCC/C(=N\\OCCN)c1ccc(C(F)(F)F)cc1 [Fluvoxamine maleate]"
system_under_test = "ISC-enriched organoids"
cat = "NO"

[[record]]
molecule = "OC(CNCC(O)C1CCc2cc(F)ccc2O1)C1CCc2cc(F)ccc2O1 (centres unmarked) [Nebivolol]"
system_under_test = "ISC-enriched organoids"
cat = "YES"

[[record]]
molecule = "S=C=Nc1cccc(NC(=S)NCCCCNC(=S)Nc2cccc(N=C=S)c2)c1 [MRS 2578]"
system_under_test = "ISC-enriched organoids"
cat = "NO"

[[record]]
molecule = "N#CSc1cc(SC#N)c(N)nc1N [PR-619]"
system_under_test = "ISC-enriched organoids"
cat = "NO"

[[record]]
molecule = "CN(c1ncccc1CNc1nc(Nc2ccc3c(c2)CC(=O)N3)ncc1C(F)(F)F)S(C)(=O)=O [PF-562271]"
system_under_test = "ISC-enriched organoids"
cat = "NO"

[[record]]
molecule = "CC(=O)c1cc([N+](=O)[O-])c(Sc2ccc(F)cc2F)s1 [P22077]"
system_under_test = "ISC-enriched organoids"
cat = "NO"

[[record]]
molecule = "OCCn1cc(-c2cnc3nnn(Cc4ccc5ncccc5c4)c3n2)cn1 [PF-04217903]"
system_under_test = "ISC-enriched organoids"
cat = "YES"

[[record]]
molecule = "CCCC(C)NC(=O)c1ccc(Cl)c(Cl)c1 (centres unmarked) [NSC 405020]"
system_under_test = "ISC-enriched organoids"
cat = "NO"

[[record]]
molecule = "Cc1ccc(S(=O)(=O)c2ccc([N+](=O)[O-])o2)cc1 [NSC697923]"
system_under_test = "ISC-enriched organoids"
cat = "NO"

[[record]]
molecule = "CC1=C(C(=O)OC2CCCCC2)C(c2ccc([N+](=O)[O-])cc2)C2=C(CC(C)(C)CC2=O)N1 (centres unmarked) [FLI-06]"
system_under_test = "ISC-enriched organoids"
cat = "NO"

[[record]]
molecule = "CS(=O)(=O)N1CCN(Cc2cc3nc(-c4cccc5[nH]ncc45)nc(N4CCOCC4)c3s2)CC1 [GDC-0941]"
system_under_test = "ISC-enriched organoids"
cat = "YES"

[[record]]
molecule = "Cc1ccc([C@@H]2O[C@H](CO)[C@@H](O)[C@H](O)[C@H]2O)cc1Cc1ccc(-c2ccc(F)cc2)s1 [Canagliflozin]"
system_under_test = "ISC-enriched organoids"
cat = "NO"

[[record]]
molecule = "C[C@H](CS)C(=O)N1CCC[C@H]1C(=O)O [Captopril]"
system_under_test = "ISC-enriched organoids"
cat = "NO"

[[record]]
molecule = "COc1ccccc1S(=O)(=O)Nc1ccc2c(c1)CN(C)C(=O)N2 [PFI-1 (PF-6405761)]"
system_under_test = "ISC-enriched organoids"
cat = "YES"

[[record]]
molecule = "Nc1nc(CC(=O)Nc2ccc(CCNC[C@H](O)c3ccccc3)cc2)cs1 [Mirabegron]"
system_under_test = "ISC-enriched organoids"
cat = "NO"

[[record]]
molecule = "CCCCCCCCCCCC1=C(O)C(=O)C=C(O)C1=O [Embelin]"
system_under_test = "ISC-enriched organoids"
cat = "NO"

[[record]]
molecule = "Nc1cccc2c1C(=O)N(C1CCC(=O)NC1=O)C2=O (centres unmarked) [Pomalidomide]"
system_under_test = "ISC-enriched organoids"
cat = "NO"

[[record]]
molecule = "Cc1ccc2c(=O)c3cccc(CC(=O)O)c3oc2c1C [DMXAA (Vadimezan)]"
system_under_test = "ISC-enriched organoids"
cat = "NO"

[[record]]
molecule = "COc1cc(OC)c(NC(=O)Nc2cc(C)on2)cc1Cl [PNU-120596]"
system_under_test = "ISC-enriched organoids"
cat = "NO"

[[record]]
molecule = "Cc1c(Cc2ccc3ccccc3n2)c2cc(F)ccc2n1CC(=O)O [OC000459]"
system_under_test = "ISC-enriched organoids"
cat = "NO"

[[record]]
molecule = "Cc1cc(OCc2nnc(SC3CCCC3)n2-c2cccnc2)ccc1-c1ccc(S(C)(=O)=O)cc1 [NMS-873]"
system_under_test = "ISC-enriched organoids"
cat = "YES"

[[record]]
molecule = "C[C@@H](NCCCc1cccc(C(F)(F)F)c1)c1cccc2ccccc12 [Cinacalcet HCl]"
system_under_test = "ISC-enriched organoids"
cat = "NO"

[[record]]
molecule = "CC(C)(C)n1nc(-c2ccc(Cl)cc2)c2c(N)ncnc21 [PP2]"
system_under_test = "ISC-enriched organoids"
cat = "NO"

[[record]]
molecule = "Oc1cc(O)cc(/C=C/c2ccc(O)c(O)c2)c1 [Piceatannol]"
system_under_test = "ISC-enriched organoids"
cat = "YES"

[[record]]
molecule = "O=C(/C=C/c1ccc(O)c(O)c1)OCCc1ccccc1 [Caffeic Acid Phenethyl Ester]"
system_under_test = "ISC-enriched organoids"
cat = "YES"

[[record]]
molecule = "COc1cc2c(cc1Cc1cccc(Cl)c1F)c(=O)c(C(=O)O)cn2[C@H](CO)C(C)C [Elvitegravir (GS-9137, JTK-303)]"
system_under_test = "ISC-enriched organoids"
cat = "NO"

[[record]]
molecule = "CCN(CC)CCCC(C)Nc1nc(C)cc(Nc2ccc3nc(C)cc(N)c3c2)n1 (centres unmarked) [NSC 23766]"
system_under_test = "ISC-enriched organoids"
cat = "NO"

[[record]]
molecule = "O=C(NNc1ccccc1)c1ccncc1 [PluriSIn #1 (NSC 14613)]"
system_under_test = "ISC-enriched organoids"
cat = "NO"

[[record]]
molecule = "CCNC(=O)[C@H]1O[C@@H](n2cnc3c(N)nc(NCCc4ccc(CCC(=O)O)cc4)nc32)[C@H](O)[C@@H]1O [CGS 21680 HCl]"
system_under_test = "ISC-enriched organoids"
cat = "YES"

[[record]]
molecule = "C1=N/C2=N/c3ccc(OCCN4CCCC4)c(c3)COC/C=C/COCc3cccc(c3)C(=C1)N2 [Pacritinib (SB1518)]"
system_under_test = "ISC-enriched organoids"
cat = "NO"

[[record]]
molecule = "CC(C)(F)C[C@H](N[C@@H](c1ccc(-c2ccc(S(C)(=O)=O)cc2)cc1)C(F)(F)F)C(=O)NC1(C#N)CC1 [Odanacatib (MK-0822)]"
system_under_test = "ISC-enriched organoids"
cat = "NO"

[[record]]
molecule = "O=C(O)Cn1nnc(-c2cc(N3CCC(Oc4cc(F)ccc4Br)CC3)no2)n1 [MK-8245]"
system_under_test = "ISC-enriched organoids"
cat = "YES"

[[record]]
molecule = "COC(=O)C1=C(C#N)NC(C)=C(C(=O)OC(C)C)C1c1cccc([N+](=O)[O-])c1 (centres unmarked) [Nilvadipine]"
system_under_test = "ISC-enriched organoids"
cat = "YES"

